Catalogue of interaction score values
Biological target: T1, 4H1809-AA
T1 chain: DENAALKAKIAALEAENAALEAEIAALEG
Assay: two-hybrid library CCmax;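 note: natural log of median RNA to DNA barcode read ratio; higher means stronger binding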
Details: mean of both orientations
MEASURED_ENDPOINT: interaction score

{"BINDER": "DEIAALKAKNAALKAKIAALEAKNAALKG [4H1000-AA]", "OBSERVED": 0.471}
{"BINDER": "DENAALEAEIAALKAKNAALKAEIAALKG [4H1146-AA]", "OBSERVED": 2.05}
{"BINDER": "DEIAALEAENAALEAENAALEAEIAALKG [4H146-AA]", "OBSERVED": -1.69}
{"BINDER": "DENAALEAEIAALEAKIAALEAKNAALKG [4H1064-AA]", "OBSERVED": -1.44}
{"BINDER": "DENAALEAKIAALKAEIAALEAENAALKG [4H1348-AA]", "OBSERVED": -1.86}
{"BINDER": "DENAALEAEIAALEAEIAALKAENAALEG [4H1035-AA]", "OBSERVED": -1.83}
{"BINDER": "DENAALEAKIAALKAKIAALKAKNAALEG [4H1391-AA]", "OBSERVED": -0.868}
{"BINDER": "DENAALEAEIAALKAENAALEAKIAALEG [4H1109-AA]", "OBSERVED": -1.32}

The values you see were collected from paper PMC10397247.
